# Test system: P12-Ichikawa
# test details: AUC of viability dose-response curve (% viability x log10 dose units); higher = less sensitive
# assay context: HPLM + 10% dialyzed FBS; 48 h
Listed here: items and their measured AUC of viability dose-response curve.

// worked examples, AUC of viability dose-response curve included
{"columns": ["item smiles", "AUC of viability dose-response curve"],
 "data": [
  ["Cc1nc(Nc2ncc(C(=O)Nc3c(C)cccc3Cl)s2)cc(N2CCN(CCO)CC2)n1", 358],
  ["Cc1cc(O)c2c3c4c(cc(O)c13)C(C)(C)C(=O)c1c(O)cc(O)c(c1-4)C2=O", 460],
  ["Cc1ccc(NC(=O)C2(c3ccc4c(c3)OC(F)(F)O4)CC2)nc1-c1cccc(C(=O)O)c1", 268],
  ["O=C(NOC[C@H](O)CO)c1ccc(F)c(F)c1Nc1ccc(I)cc1F", 434],
  ["COc1cc2c(N3CCN(C(=O)Nc4ccc(OC(C)C)cc4)CC3)ncnc2cc1OCCCN1CCCCC1", 406],
  ["C=C(C)[C@@H]1CC[C@]2(C)CC[C@]3(C)[C@H](CC[C@@H]4[C@@]5(C)CC[C@H](O)C(C)(C)[C@@H]5CC[C@]43C)[C@@H]12", 458],
  ["CC(C)(C)OC(=O)CN(Cc1ccc(Cl)cc1)Cc1ccc([N+](=O)[O-])s1", 456]
]}

Next up:
Query: API: value(readout=AUC of viability dose-response curve, system=P12-Ichikawa) for record `O=C(NC1CCOCC1)c1ccc(-c2cc(-c3c[nH]nc3-c3ccccn3)ccn2)cc1`
Response: 463
